SYSTEM: human dopamine D2 receptor (Homo sapiens)
Construct: accorded to it of human dopamine D2 receptor (NM1-000795) registered on NCBI completely; expressed in transfected cells; membrane homogenates
PROCEDURE_DETAILS: Stimulating activities on human dopamine D2 receptor, [35S]GTPγS binding to hD2R#7 cell membrane homogenates
Type: biochemical
CONDITIONS_USED: [35S]GTPγS binding, membrane homogenates of HEK293 cells stably expressing human D2 receptor; mean, n=2; read-out: EC50
Excerpt: Identification Test of Stimulating Activities on Human Dopamine D2 Receptor 4) Preparation of Membrane Homogenates from hD2R#7 Cells (2) Preparation of Membrane Homogenates from hD2R#7 Cells […]
pEC50: −log10 of the molar value.
MEASURED_PARAMETER: pEC50

COMPOUND	pEC50
CCCN(C(=O)NCCNC)C(=O)[C@@H]1C[C@@H]2Cc3c(sc(N)c3C#N)C[C@H]2N(C)C1	7.92
CCCN(C(=O)NCC(C)(C)N(C)C)C(=O)[C@@H]1C[C@@H]2Cc3c(sc(N)c3C#N)C[C@H]2N(C)C1 (relative stereo)	7.89
CCCN(C(=O)NCC(C)(C)CN(C)C)C(=O)[C@@H]1C[C@@H]2Cc3c(sc(N)c3C#N)C[C@H]2N(C)C1	8.22
CN(C)CCNC(=O)N(CCCC(F)(F)F)C(=O)[C@@H]1C[C@@H]2Cc3c(sc(N)c3C#N)C[C@H]2N(C)C1	7.96
CCCCN(C(=O)NCCN1CCCCC1)C(=O)[C@@H]1C[C@@H]2Cc3c(sc(N)c3C#N)C[C@H]2N(C)C1 (relative stereo)	8.00

a = CCCCN(C(=O)NCCN(C)CCO)C(=O)[C@@H]1C[C@@H]2Cc3c(sc(N)c3C#N)C[C@H]2N(C)C1
b = CCN(C(=O)N[C@@H](C)CN(C)C)C(=O)[C@@H]1C[C@@H]2Cc3c(sc(N)c3C#N)C[C@H]2N(C)C1
c = CCN(C(=O)NCC(C)(C)CN(C)C)C(=O)[C@@H]1C[C@@H]2Cc3c(sc(N)c3C#N)C[C@H]2N(C)C1
Hello, I need these entries ordered by pEC50, highest reading first. Thanks! Answer with the labels in sequence, matching the requested order.
c, b, a
(c: 8.52, b: 8.30, a: 7.66)

I = CCNC(=O)N(CCN1CCCC1)C(=O)[C@@H]1C[C@@H]2Cc3c(sc(N)c3C#N)C[C@H]2N(C)C1
II = CCN(C(=O)NCCCOC)C(=O)[C@@H]1C[C@@H]2Cc3c(sc(N)c3C#N)C[C@H]2N(C)C1
III = CN(C)CCNC(=O)N(CCc1ccccc1)C(=O)[C@@H]1C[C@@H]2Cc3c(sc(N)c3C#N)C[C@H]2N(C)C1 (relative stereo)
Let's sort these by pEC50, smallest first. Go ahead? Answer with the labels in sequence, matching the requested order.
II, I, III

a = CCN(C(=O)NCCc1ccccc1CCN(C)C)C(=O)[C@@H]1C[C@@H]2Cc3c(sc(N)c3C#N)C[C@H]2N(C)C1
b = CCCCN(C(=O)NCCN(CC)CC)C(=O)[C@H]1CN[C@@H]2Cc3sc(N)c(C#N)c3C[C@H]2C1
In terms of reported pEC50, does a or b have the smaller number? Mark your selection by writing its label.
b

* * *

Measured EC50 accompanies every entry in the list below.
SYSTEM: human dopamine D2 receptor (Homo sapiens, UniProt P14416)
Construct: accorded to it of human dopamine D2 receptor (NM1-000795) registered on NCBI completely; expressed in transfected cells; membrane homogenates
Sequence (P14416 whole entry): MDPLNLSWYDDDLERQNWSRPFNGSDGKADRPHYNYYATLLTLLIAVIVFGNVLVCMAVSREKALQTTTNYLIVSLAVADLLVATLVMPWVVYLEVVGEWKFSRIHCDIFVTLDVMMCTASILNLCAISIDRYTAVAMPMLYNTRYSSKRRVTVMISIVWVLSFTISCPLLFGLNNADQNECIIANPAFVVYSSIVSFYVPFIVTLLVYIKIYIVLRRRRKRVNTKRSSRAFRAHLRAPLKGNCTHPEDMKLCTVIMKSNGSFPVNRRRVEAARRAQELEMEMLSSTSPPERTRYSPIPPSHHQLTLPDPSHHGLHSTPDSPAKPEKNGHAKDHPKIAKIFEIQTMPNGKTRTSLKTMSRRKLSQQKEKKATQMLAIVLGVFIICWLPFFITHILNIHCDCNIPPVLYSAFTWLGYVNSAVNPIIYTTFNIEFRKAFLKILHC
PROCEDURE_DETAILS: Stimulating activities on human dopamine D2 receptor, [35S]GTPγS binding to hD2R#7 cell membrane homogenates
Format: biochemical
The figure you give is taken to be in nM; do not add the unit.

COMPOUND	EC50 / nM
CCN(C(=O)NCc1ccccn1)C(=O)[C@@H]1C[C@@H]2Cc3c(sc(N)c3C#N)C[C@H]2N(C)C1 [1-25]	15

// map CCN(CC)CCNC(=O)N(CC)C(=O)[C@@H]1C[C@@H]2Cc3c(sc(N)c3C#N)C[C@H]2N(C)C1 [1-105] to recorded EC50 (system: human dopamine D2 receptor (Homo sapiens, UniProt P14416))
5

* * *

SYSTEM: human dopamine D2 receptor (Homo sapiens, UniProt P14416)
Construct: accorded to it of human dopamine D2 receptor (NM1-000795) registered on NCBI completely; expressed in transfected cells; membrane homogenates
PROCEDURE_DETAILS: Stimulating activities on human dopamine D2 receptor, [35S]GTPγS binding to hD2R#7 cell membrane homogenates
Assay type: biochemical
CONDITIONS_USED: [35S]GTPγS binding, membrane homogenates of HEK293 cells stably expressing human D2 receptor; mean, n=2; read-out: EC50
From the text: Identification Test of Stimulating Activities on Human Dopamine D2 Receptor 4) Preparation of Membrane Homogenates from hD2R#7 Cells (2) Preparation of Membrane Homogenates from hD2R#7 Cells […]
pEC50: −log10 of the molar value.
MEASURED_PARAMETER: pEC50

A = CCCCN(C(=O)NCCN(CC)CC)C(=O)[C@@H]1C[C@@H]2Cc3c(sc(N)c3C#N)C[C@H]2N(C)C1
B = CCN(C(=O)NC(C)(C)CN(C)C)C(=O)[C@@H]1C[C@@H]2Cc3c(sc(N)c3C#N)C[C@H]2N(C)C1
C = COCCN(C(=O)NCCN1CCCCC1)C(=O)[C@@H]1C[C@@H]2Cc3c(sc(N)c3C#N)C[C@H]2N(C)C1
Please arrange the 3 molecules above from largest to smallest pEC50 value. Answer with the labels in sequence, matching the requested order.
B, A, C
(B: 8.40, A: 8.15, C: 7.92)

1 = CN(C)CC(C)(C)CNC(=O)N(CC1CC1)C(=O)[C@@H]1C[C@@H]2Cc3c(sc(N)c3C#N)C[C@H]2N(C)C1
2 = CN(C)CCNC(=O)N(CC(C)(C)C)C(=O)[C@@H]1C[C@@H]2Cc3c(sc(N)c3C#N)C[C@H]2N(C)C1 (relative stereo)
In terms of reported pEC50, does 1 or 2 have the smaller number? Mark your selection by writing its label.
2
(2: 8.05, 1: 8.40)

* * *

SYSTEM: human dopamine D2 receptor (Homo sapiens, UniProt P14416)
Construct: accorded to it of human dopamine D2 receptor (NM1-000795) registered on NCBI completely; expressed in transfected cells; membrane homogenates
PROCEDURE_DETAILS: Stimulating activities on human dopamine D2 receptor, [35S]GTPγS binding to hD2R#7 cell membrane homogenates
Assay type: biochemical
CONDITIONS_USED: [35S]GTPγS binding, membrane homogenates of HEK293 cells stably expressing human D2 receptor; mean, n=2; read-out: EC50
MEASURED_PARAMETER: EC50 (nM)

Past entries and their recorded results:
COMPOUND	NUMERIC_RESULT
CCN(C(=O)NCCN(C)c1ccccc1)C(=O)[C@@H]1C[C@@H]2Cc3c(sc(N)c3C#N)C[C@H]2N(C)C1	13
CCCN(C(=O)NCCN(C)C)C(=O)[C@@H]1C[C@@H]2Cc3c(sc(N)c3C#N)C[C@H]2N(C)C1	6

1 = CN(C)CCNC(=O)N(Cc1cccs1)C(=O)[C@@H]1C[C@@H]2Cc3c(sc(N)c3C#N)C[C@H]2N(C)C1
2 = CC(C)CCN(C(=O)NCCN(C)C)C(=O)[C@@H]1C[C@@H]2Cc3c(sc(N)c3C#N)C[C@H]2N(C)C1 (relative stereo)
In terms of reported EC50, does 1 or 2 have the smaller number? Mark your selection by writing its label.
1

* * *

SYSTEM: human dopamine D2 receptor (Homo sapiens, UniProt P14416)
Construct: accorded to it of human dopamine D2 receptor (NM1-000795) registered on NCBI completely; expressed in transfected cells; membrane homogenates
PROCEDURE_DETAILS: Stimulating activities on human dopamine D2 receptor, [35S]GTPγS binding to hD2R#7 cell membrane homogenates
Format: biochemical
CONDITIONS_USED: [35S]GTPγS binding, membrane homogenates of HEK293 cells stably expressing human D2 receptor; mean, n=2; read-out: EC50
pEC50: −log10 of the molar value.
MEASURED_PARAMETER: pEC50

MOLECULE	pEC50
C=CCN(C(=O)NCCN(C)C)C(=O)[C@@H]1C[C@@H]2Cc3c(sc(N)c3C#N)C[C@H]2N(C)C1 [1-39]	7.77
CCCCN(C(=O)NCCN(C)C)C(=O)[C@@H]1C[C@@H]2Cc3c(sc(N)c3C#N)C[C@H]2N(C)C1 (relative stereo) [1-24]	7.77
CCCN(CCC)CCc1cccc2c1CC(=O)N2 [Ropinirole, ropinirole, reference compound]	6.05
CCN(C(=O)NCCN(C)C)C(=O)[C@@H]1C[C@@H]2Cc3c(sc(N)c3C#N)C[C@H]2N(C)C1 [1-108]	8.22
